A collection of molecules and their measured pKi
Molecular target: Sodium-dependent noradrenaline transporter (Homo sapiens, UniProt P23975)
Sequence (P23975 whole entry): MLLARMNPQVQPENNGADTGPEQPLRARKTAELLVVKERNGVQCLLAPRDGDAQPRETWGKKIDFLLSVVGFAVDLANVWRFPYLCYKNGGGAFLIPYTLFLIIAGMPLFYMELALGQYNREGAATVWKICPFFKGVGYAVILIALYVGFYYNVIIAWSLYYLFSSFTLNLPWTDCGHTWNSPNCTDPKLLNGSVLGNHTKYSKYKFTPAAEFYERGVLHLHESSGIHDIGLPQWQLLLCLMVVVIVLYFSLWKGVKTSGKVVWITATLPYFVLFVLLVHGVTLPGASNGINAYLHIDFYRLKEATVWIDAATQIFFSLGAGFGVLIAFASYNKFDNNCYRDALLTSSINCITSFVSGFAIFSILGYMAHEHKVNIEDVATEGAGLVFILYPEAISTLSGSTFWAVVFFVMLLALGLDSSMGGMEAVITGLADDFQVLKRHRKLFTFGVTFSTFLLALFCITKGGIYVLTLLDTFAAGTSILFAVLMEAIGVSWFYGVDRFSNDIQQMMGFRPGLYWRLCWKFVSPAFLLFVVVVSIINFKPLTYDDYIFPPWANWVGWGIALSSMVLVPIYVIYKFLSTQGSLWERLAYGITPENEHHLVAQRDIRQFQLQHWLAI
Assay: PDSP Secondary Binding target: SLC6A2 - Compounds are tested at 10 uM concentration, plate are incubated at room temperature in the dark for 90 minutes. Reaction are stopped by vacuum filtration onto 0.3% polyethyleneimine soaked filter mats using Filtermate harvester. Scintillation cocktail is then melted onto microwave-dried filters on a hot plate and the radio activity is counted in Microbia counter.
Counter-ions that a name gives are not always drawn.
The scale used: pKi is minus the common logarithm of the concentration in molar units.

// known answers, use as guide
>>> print(df.to_string())
                                   molecule  obsvalue
0  N#Cc1ccc2[nH]cc(CCCCN3CCN(c4ccc5oc(C(N)=O)cc5c4)CC3)c2c1 [VILAZODONE HYDROCHLORIDE]      7.81
1  COc1ccc(NC(=O)c2ccc(-c3ccc(-c4noc(C)n4)cc3C)cc2)cc1OCCN(C)C      6.18
2  Clc1ccc(CCCOCCCN2CCCCC2)cc1 [PITOLISANT HYDROCHLORIDE]      5.72

Qu. Recorded pKi for COC(=O)C1=C(C)NC(C)=C(C(=O)OCCCN2CCC(c3ccccc3)(c3ccccc3)CC2)[C@H]1c1cccc([N+](=O)[O-])c1 [NIGULDIPINE] , please?
Ans. 6.07

Qu. Recorded pKi for Cc1nc(-c2ccc(-c3ccc(C(=O)N4CCc5cc6c(cc54)C4(CCN(C)CC4)CO6)cc3)c(C)c2)no1 [SB-224289] , please?
Ans. 5.76

Qu. Recorded pKi for Cc1cccc([C@H](C)c2cnc[nH]2)c1C [DEXMEDETOMIDINE HYDROCHLORIDE] , please?
Ans. 5.49

Qu. Recorded pKi for "CCCCCNC(=O)NS(=O)(=O)c1cc([N+](=O)[O-])ccc1NC1CCCCC1" , please?
Ans. 5.16

Qu. Recorded pKi for "Cc1cc(C)cc(-c2cnc3cc(Cl)c(-c4cccc(O)c4)cc3c2OCCCN)c1" , please?
Ans. 5.24

Qu. Recorded pKi for "CN1CCN(c2ccc(Nc3c4ccccc4nc4ccccc34)cc2)CC1" , please?
Ans. 6.92

Qu. Recorded pKi for C[C@@H](NCCc1ccc(O)cc1)[C@@H](O)c1ccc(O)cc1 (relative stereo) , please?
Ans. 5.59

Qu. Recorded pKi for CC(C)[C@H](CO)Nc1nc(Nc2cccc(Cl)c2)c2ncn(C(C)C)c2n1 [PURVALANOLA] , please?
Ans. 5.36

----------
Target: Alpha-1B adrenergic receptor (Homo sapiens, UniProt P35368)
Sequence (P35368 whole entry): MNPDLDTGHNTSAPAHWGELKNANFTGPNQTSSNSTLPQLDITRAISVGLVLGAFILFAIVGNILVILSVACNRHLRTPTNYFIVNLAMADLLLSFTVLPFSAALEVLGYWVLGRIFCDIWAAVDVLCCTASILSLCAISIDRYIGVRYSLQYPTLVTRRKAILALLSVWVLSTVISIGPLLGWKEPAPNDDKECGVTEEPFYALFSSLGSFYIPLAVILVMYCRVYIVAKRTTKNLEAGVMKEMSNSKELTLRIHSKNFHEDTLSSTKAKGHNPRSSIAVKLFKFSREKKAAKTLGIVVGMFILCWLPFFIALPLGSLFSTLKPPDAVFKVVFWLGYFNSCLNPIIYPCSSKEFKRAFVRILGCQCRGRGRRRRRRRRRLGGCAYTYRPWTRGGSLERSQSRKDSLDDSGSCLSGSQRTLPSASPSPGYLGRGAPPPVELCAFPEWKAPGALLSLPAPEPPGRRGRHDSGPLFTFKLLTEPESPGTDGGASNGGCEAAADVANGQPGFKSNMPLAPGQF
Structures can show the parent of a compound that is named as a salt.
experimentalReadout: Ki (nM)
Report the value in nM with no unit label.

// known answers, use as guide
compound	Ki, nM
CCc1nn(CCCN2CCN(c3cccc(Cl)c3)CC2)c(=O)n1CCOc1ccccc1 [NEFAZODONE HYDROCHLORIDE]	572
CCc1cc2c(cc1CC)CC(NC[C@H](O)c1ccc(O)c3[nH]c(=O)ccc13)C2 [INDACATEROL]	4320
CCc1ccc(OCc2ccccc2C(=O)Nc2ccc3nc(C)cc(N)c3c2)cc1	3540

Qu. Recorded Ki for Cc1cccc([C@H](C)c2cnc[nH]2)c1C [DEXMEDETOMIDINE HYDROCHLORIDE] , please?
Ans. 2980

----------
Where a name gives a salt, the structure may show the parent alone.
Ki values recorded for UniProt P35368
Report the value in nM with no unit label.

// known answers, use as guide
>>> print(df.to_string())
                                   compound  obsvalue
0  CN(C)C(=O)N[C@H]1CC[C@H](CCN2CCN(c3cccc(Cl)c3Cl)CC2)CC1 [CARIPRAZINE HYDROCHLORIDE]      1970
1  Cc1ccc2c(c1)c1c(n2CCc2ccc(C)nc2)CCN(C)C1 [LATREPIRDINE]      1310
2  S=C(NCCCc1c[nH]cn1)NCCCN(Cc1ccc(Cl)c(Cl)c1)c1ccc(Br)cn1      2030

Qu. So what Ki did CN1CCCC(n2nc(Cc3ccc(Cl)cc3)c3ccccc3c2=O)CC1 (centres undefined) [AZELASTINE HYDROCHLORIDE] get with UniProt P35368?
Ans. 3640

----------
A collection of compounds and their measured pKi
Molecular target: D(2) dopamine receptor (Homo sapiens)
Sequence (P14416 whole entry): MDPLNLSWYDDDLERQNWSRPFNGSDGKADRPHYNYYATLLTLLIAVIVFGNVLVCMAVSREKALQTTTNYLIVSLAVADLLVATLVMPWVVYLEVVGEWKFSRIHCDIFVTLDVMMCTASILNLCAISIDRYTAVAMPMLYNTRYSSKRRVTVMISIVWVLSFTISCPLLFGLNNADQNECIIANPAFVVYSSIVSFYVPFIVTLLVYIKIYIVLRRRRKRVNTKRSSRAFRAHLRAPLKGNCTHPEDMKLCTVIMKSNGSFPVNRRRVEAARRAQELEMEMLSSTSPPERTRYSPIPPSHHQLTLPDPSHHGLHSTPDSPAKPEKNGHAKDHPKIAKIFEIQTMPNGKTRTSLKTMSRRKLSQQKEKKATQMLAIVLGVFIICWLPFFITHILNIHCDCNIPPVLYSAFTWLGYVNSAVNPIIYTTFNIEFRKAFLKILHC
Counter-ions that a name gives are not always drawn.
The scale used: pKi is minus the common logarithm of the concentration in molar units.

compound	pKi
CN1C2CCC1CC(OC(c1ccc(F)cc1)c1ccc(F)cc1)C2 (centres undefined)	6.12
CCCCCNC(=N)N/N=C/c1c[nH]c2ccc(OC)cc12 [TEGASEROD MALEATE]	6.53
CN1CCC(=C2c3ccccc3CC(=O)c3sccc32)CC1 [KETOTIFEN FUMARATE]	5.76
Cc1nc2sccn2c(=O)c1CCN1CCC(=C(c2ccc(F)cc2)c2ccc(F)cc2)CC1 [RITANSERIN]	6.74

Qu. So what pKi did Cc1ccc2c(c1)c1c(n2CCc2ccc(C)nc2)CCN(C)C1 [LATREPIRDINE] get with D(2) dopamine receptor (Homo sapiens)?
Ans. 5.81

Qu. So what pKi did CN1CCCC(n2nc(Cc3ccc(Cl)cc3)c3ccccc3c2=O)CC1 (centres undefined) [AZELASTINE HYDROCHLORIDE] get with D(2) dopamine receptor (Homo sapiens)?
Ans. 5.93

Qu. So what pKi did CC(C)(C(=O)O)c1ccc(C(O)CCCN2CCC(C(O)(c3ccccc3)c3ccccc3)CC2)cc1 (centres undefined) [FEXOFENADINE HYDROCHLORIDE] get with D(2) dopamine receptor (Homo sapiens)?
Ans. 5.06

Qu. So what pKi did C[C@H](Cc1cc2c(c(C(N)=O)c1)N(CCCO)CC2)NCCOc1ccccc1OCC(F)(F)F [SILODOSIN] get with D(2) dopamine receptor (Homo sapiens)?
Ans. 6.00

Qu. So what pKi did N#Cc1ccc2[nH]cc(CCCCN3CCN(c4ccc5oc(C(N)=O)cc5c4)CC3)c2c1 [VILAZODONE HYDROCHLORIDE] get with D(2) dopamine receptor (Homo sapiens)?
Ans. 6.26

----------
pKi values recorded for Muscarinic acetylcholine receptor M3 (Homo sapiens)
The scale used: pKi is minus the common logarithm of the concentration in molar units.

// known answers, use as guide
In [3]: df
Out[3]:
                                   molecule  experimentalreadout  obsvalue
0  Cc1c(P(=S)(c2ccccc2)c2ccccc2)n2ccccc2[n+]1C/C=C/c1ccccc1                  pKi      5.94
1  Cc1cn2cc(CC(=O)N3CCC4(CC3)CN(Cc3ccc(-n5nccn5)cc3Cl)C4)nc2s1                  pKi      5.82
2  Cc1cc(C(=O)N2Cc3cnn(C)c3Nc3ccccc32)ccc1CNC(=O)N1CCC[C@H]1C(=S)N1CCCN(C)CC1                  pKi      6.15
3  CN1C2CCC1CC(OC(c1ccc(F)cc1)c1ccc(F)cc1)C2 (stereo unspecified)                  pKi      8.24

We next turn to a different molecule, shown below.
Qu. Recorded pKi for Cc1nc(-c2ccc(-c3ccc(C(=O)N4CCc5cc6c(cc54)C4(CCN(C)CC4)CO6)cc3)c(C)c2)no1 [SB-224289] , please?
Ans. 6.03

----------
Molecular target: Sigma intracellular receptor 2 (Homo sapiens)
Sequence (Q5BJF2 whole entry): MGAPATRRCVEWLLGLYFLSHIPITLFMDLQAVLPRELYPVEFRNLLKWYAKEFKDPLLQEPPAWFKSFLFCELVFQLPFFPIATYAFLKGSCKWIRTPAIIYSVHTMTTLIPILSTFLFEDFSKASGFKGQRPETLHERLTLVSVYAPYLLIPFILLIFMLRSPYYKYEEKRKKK
Assay: PDSP Secondary Binding target: TMEM97 - Compounds are tested at 10 uM concentration, plate are incubated at room temperature in the dark for 90 minutes. Reaction are stopped by vacuum filtration onto 0.3% polyethyleneimine soaked filter mats using Filtermate harvester. Scintillation cocktail is then melted onto microwave-dried filters on a hot plate and the radio activity is counted in Microbia counter.
pKi: −log10 of the molar value. Structures can show the parent of a compound that is named as a salt.
Returns one of MET or NOT MET; MET when pKi is >= 6.

Worked set:
                                   molecule                        experimentalsystem  category
0  Clc1cccc(Cl)c1N=C1NCCN1 [CLONIDINE HYDROCHLORIDE]  Sigma intracellular receptor 2 (Homo sapiens)   NOT MET
1  Clc1ccc(CCCOCCCN2CCCCC2)cc1 [PITOLISANT HYDROCHLORIDE]  Sigma intracellular receptor 2 (Homo sapiens)       MET
2  C[C@@H](NCCc1ccc(O)cc1)[C@@H](O)c1ccc(O)cc1 (relative stereo)  Sigma intracellular receptor 2 (Homo sapiens)   NOT MET
3  CN1CCCC(n2nc(Cc3ccc(Cl)cc3)c3ccccc3c2=O)CC1 (stereo unspecified) [AZELASTINE HYDROCHLORIDE]  Sigma intracellular receptor 2 (Homo sapiens)       MET
4  CCCCN(CC)c1nc(C)nc2c1c(C)cn2-c1c(C)cc(C)cc1C  Sigma intracellular receptor 2 (Homo sapiens)   NOT MET

Qu. Does the reported pKi for "COC(=O)C1=C(C)NC(C)=C(C(=O)OCCCN2CCC(c3ccccc3)(c3ccccc3)CC2)[C@H]1c1cccc([N+](=O)[O-])c1" fall at or above the 6 mark?
Ans. MET

Qu. Does the reported pKi for "CN1CCC(C(=O)c2cccc(NC(=O)c3c(F)cc(F)cc3F)n2)CC1" fall at or above the 6 mark?
Ans. MET
